B1: RBBP5 (parent)
chain: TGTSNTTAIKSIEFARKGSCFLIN

# Variants of: B1
# testDetails: protein stability index of a GFP-peptide fusion (GPS, HEK-293T) (PSI 1-6); higher = more stable;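 also: lentivirally expressed fusions sorted by FACS into six bins by GFP to DsRed ratio, PSI derived from sequencing read proportions per bin multiplied by bin number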
# testConditions: c terminus: a fixed tail appended

variantDescription: T6G
protein stability index: 1.98

variantDescription: I9L
protein stability index: 2.03

variantDescription: C20M
protein stability index: 2.01

variantDescription: T3W
protein stability index: 2.02

variantDescription: G18F
protein stability index: 1.99

variantDescription: T7W
protein stability index: 1.95

variantDescription: I23F
protein stability index: 1.98

variantDescription: I23L
protein stability index: 2.05

variantDescription: S19P
protein stability index: 2.04
